# credit: ChEMBL document CHEMBL4814076

# TEST_NAME: Tmax in Sprague-Dawley rat at 5 mg/kg, po measured upto 24 hrs by LC-MS/MS analysis
# Type: ADME, organism-based
# CONDITION_SUMMARY: in vivo
READOUT_NAME: Tmax (h)
One number for each entry, in h.

Exam item: Note Tmax for the compound shown: C=CC(=O)N1CC[C@@H](NC(=O)c2sc3nccc4c3c2NC(=O)N4c2ccc(Oc3ccccc3)cc2C)C1
Marked response: 1

----------
# TARGET_OF_ASSAY: Tyrosine-protein kinase HCK (Homo sapiens, UniProt P08631)
# Sequence (P08631 whole entry, the tested form may be a part): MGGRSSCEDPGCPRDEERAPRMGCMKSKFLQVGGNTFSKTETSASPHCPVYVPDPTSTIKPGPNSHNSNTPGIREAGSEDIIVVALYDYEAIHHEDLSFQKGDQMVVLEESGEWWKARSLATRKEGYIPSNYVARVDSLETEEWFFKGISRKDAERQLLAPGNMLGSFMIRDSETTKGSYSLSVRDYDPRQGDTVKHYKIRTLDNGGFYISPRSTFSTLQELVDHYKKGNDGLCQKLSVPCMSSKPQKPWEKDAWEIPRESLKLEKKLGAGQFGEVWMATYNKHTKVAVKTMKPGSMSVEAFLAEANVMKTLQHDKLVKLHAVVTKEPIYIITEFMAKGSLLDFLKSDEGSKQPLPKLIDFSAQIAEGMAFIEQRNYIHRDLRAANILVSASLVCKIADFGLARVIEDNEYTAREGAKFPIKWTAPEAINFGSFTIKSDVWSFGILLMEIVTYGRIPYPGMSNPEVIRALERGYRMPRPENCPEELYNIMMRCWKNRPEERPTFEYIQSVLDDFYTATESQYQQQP
# TEST_NAME: Inhibition of recombinant human HCK (230 to 497 residues) using GGMEDIYFEFMGGKKK as substrate incubated for 40 mins in presence of [gamma33P]ATP by scintillation counting method
READOUT_NAME: IC50

Exam item: Note IC50 for the compound shown: C=CC(=O)N1CC[C@@H](NC(=O)c2sc3nccc4c3c2NC(=O)N4c2ccc(Oc3ccccc3)cc2C)C1
Marked response: > 30 µM

----------
# TEST_NAME: Half life in Sprague-Dawley rat at 1 mg/kg, iv measured upto 24 hrs by LC-MS/MS analysis
# Assay type: ADME, organism-based
# CONDITION_SUMMARY: in vivo
READOUT_NAME: half-life (min)
Answers are plain numbers, in min.

Exam item: Note half-life for the compound shown: C=CC(=O)N1CC[C@@H](NC(=O)c2sc3nccc4c3c2NC(=O)N4c2ccc(Oc3ccccc3)cc2C)C1
Marked response: 18

----------
# TARGET_OF_ASSAY: Tyrosine-protein kinase Tec (Homo sapiens, UniProt P42680)
# Sequence (P42680 whole entry): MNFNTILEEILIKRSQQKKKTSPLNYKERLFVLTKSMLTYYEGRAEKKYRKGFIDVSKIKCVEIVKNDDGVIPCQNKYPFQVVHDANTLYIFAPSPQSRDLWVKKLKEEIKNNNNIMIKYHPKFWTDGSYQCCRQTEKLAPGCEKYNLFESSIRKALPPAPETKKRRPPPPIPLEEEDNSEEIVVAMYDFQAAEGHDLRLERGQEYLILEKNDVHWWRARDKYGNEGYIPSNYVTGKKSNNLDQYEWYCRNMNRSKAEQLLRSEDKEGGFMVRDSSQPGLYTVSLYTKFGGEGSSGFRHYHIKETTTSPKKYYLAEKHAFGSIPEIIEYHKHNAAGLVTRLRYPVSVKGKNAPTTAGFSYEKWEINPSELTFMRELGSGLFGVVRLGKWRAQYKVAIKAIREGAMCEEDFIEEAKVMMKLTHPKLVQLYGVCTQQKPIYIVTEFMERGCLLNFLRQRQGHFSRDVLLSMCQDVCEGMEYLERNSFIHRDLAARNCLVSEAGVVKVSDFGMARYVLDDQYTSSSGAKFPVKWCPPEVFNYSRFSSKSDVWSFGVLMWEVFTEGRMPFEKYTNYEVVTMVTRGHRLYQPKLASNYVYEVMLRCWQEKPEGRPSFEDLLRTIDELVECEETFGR
# TEST_NAME: Inhibition of recombinant human TEC (174 to end residues) using EFPIYDFLPAKKK as substrate incubated for 40 mins in presence of [gamma33P]ATP by scintillation counting method
READOUT_NAME: pIC50
Numbers only, as −log10 of the molar value.

Exam item: Look up Tyrosine-protein kinase Tec (Homo sapiens, UniProt P42680) data: pIC50 of C=CC(=O)N1CC[C@@H](NC(=O)c2sc3nccc4c3c2NC(=O)N4c2ccc(Oc3ccccc3)cc2C)C1 , then report it.
Marked response: 6.39
